Consider the following compounds; for each one, report its cytotoxicity at 48 h, 100 µM.
experiment: Cytotoxicity against mouse RAW264.7 cells at 100 uM after 48 hrs by MTT assay; type: cell-based; conditions: read-out: INH
Field format: number, assumed %, no unit text.

Value of measured cytotoxicity at 48 h, 100 µM for the entry O=c1ccc2ncc(F)cc2n1CCN1CCC(NC(=S)Nc2ccc(Cl)cc2)CC1 : 40.5

Form: compound = COc1cnc2ccc(=O)n(CCN3CCC(NC(=O)Nc4ccc(C)cc4)CC3)c2c1 ; cytotoxicity at 48 h, 100 µM = 39.6

Reported cytotoxicity at 48 h, 100 µM ( COc1cnc2ccc(=O)n(CCN3CCC(NC(=O)Nc4ccc(C(C)=O)cc4)CC3)c2c1 ) = 39.5

Reference source for all entries: ChEMBL document CHEMBL3351599
